# Assay Protocol: Plasma clearance in mouse at 1 mg/kg, iv and 5 mg/kg, po
# Type: ADME, organism-based
Measurement Kind: clearance (mL/min/kg)
Answers are plain numbers, in mL/min/kg.

// "N#Cc1ccnc(Nc2cc(C3CCN(C4COC4)CC3)cc(N3CCC(F)(F)C3)n2)c1" : clearance value = 56

---

# Target Or Test System: Mitogen-activated protein kinase 8 (Homo sapiens)
# Sequence (P45983 whole entry): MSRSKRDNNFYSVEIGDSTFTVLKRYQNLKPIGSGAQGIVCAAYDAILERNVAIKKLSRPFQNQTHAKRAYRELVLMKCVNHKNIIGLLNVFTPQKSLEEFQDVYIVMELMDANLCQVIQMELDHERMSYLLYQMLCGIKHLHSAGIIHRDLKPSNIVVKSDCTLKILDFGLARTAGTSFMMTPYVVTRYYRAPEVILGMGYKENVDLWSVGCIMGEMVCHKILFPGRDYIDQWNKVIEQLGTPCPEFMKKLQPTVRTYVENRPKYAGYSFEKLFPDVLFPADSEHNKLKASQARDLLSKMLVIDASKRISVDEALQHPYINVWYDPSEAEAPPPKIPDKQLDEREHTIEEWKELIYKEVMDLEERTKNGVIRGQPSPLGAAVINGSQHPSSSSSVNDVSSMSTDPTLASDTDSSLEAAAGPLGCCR
# Assay Protocol: Inhibition of JNK1 (unknown origin)
Measurement Kind: IC50 (µM)
Give bare numbers, in µM.

GET /value?item= "N#Cc1ccnc(Nc2cc(C3CCN(C4COC4)CC3)cc(N3CCC(F)(F)C3)n2)c1" &field=IC50 returns 0.129
